Test system: SW-620 colon
Experiment: NCI-60 one-dose screen, 48 h (100 = growth as untreated, 0 = no growth, -100 = all killed)
Conditions: 10 µM
The panel holds about 83,000 compounds, 20% with a hit somewhere; the sample as a whole holds those more often.
Give measured growth for each item. Keep answers brief.
Return type: number; implicit unit %.

Dear colleague, I am looking for the recorded growth of the following compound: Cc1ccc(C2=NN(c3ccc(S(C)(=O)=O)cc3)C(=O)CC2)cc1 8.58

Dear colleague, I am looking for the recorded growth of the following compound: COc1ccc(-c2nnc(SCC(=O)Nc3ccc(C(=O)/C=C/c4ccccc4)cc3)n2-c2ccccc2)cc1OC 66.4

Dear colleague, I am looking for the recorded growth of the following compound: CCOC(=O)Cn1c(=O)c2sc3ncccc3c2n2nnc(-c3ccccc3)c12 119

Dear colleague, I am looking for the recorded growth of the following compound: O=C1/C(=C/c2ccc3c(c2)OCO3)SC(=S)N1C1c2ccccc2Oc2ccccc21 103

Dear colleague, I am looking for the recorded growth of the following compound: N#CCc1csc(Cc2ccccc2)n1 103

Dear colleague, I am looking for the recorded growth of the following compound: COc1ccc(Cc2cnc(N)nc2N)cc1OC 98.7

Dear colleague, I am looking for the recorded growth of the following compound: COc1cc2cc(Oc3ccc(NC(=O)c4cccc(C(F)(F)F)c4)cc3)c(C)nc2cc1OC 54.8

Dear colleague, I am looking for the recorded growth of the following compound: COc1cc(-c2nn(-c3cccc(NC(=O)CN4CCOCC4)c3)cc2-c2cccnc2)ccc1Cl 62.2

Dear colleague, I am looking for the recorded growth of the following compound: COc1cc2cc(Oc3ccc(NC(=O)Nc4ccc(Cl)c(C(F)(F)F)c4)cc3)c(C)nc2cc1OC 7.51

Dear colleague, I am looking for the recorded growth of the following compound: CN(C)c1ccc(/C=N/NC(=O)c2cccc3ccccc23)c(Cl)c1 24.2

Dear colleague, I am looking for the recorded growth of the following compound: COc1ccc(-c2cc(-c3ccccc3)nc(SCCCC(=O)NO)n2)cc1 2.34

Dear colleague, I am looking for the recorded growth of the following compound: CC(C)(C)OC(=O)CC(S(=O)(=O)c1ccccc1)S(=O)(=O)c1ccccc1 -63.9

Dear colleague, I am looking for the recorded growth of the following compound: CC1/C=C/C=C/C=C/C=C/C=C/C=C/C=C/C(O[C@@H]2O[C@H](C)[C@H](O)[C@@H](O)[C@@H]2N)CC(O)C(C(=O)O)C(O)CC(=O)CC(O)CC(O)CC(O)CC(=O)CCCC(=O)CC(=O)OC1C(C)CC(C)C(O)CC(=O)c1ccc(N)cc1 (some centres undefined) -95.3

Dear colleague, I am looking for the recorded growth of the following compound: CC1=CC2C(C(O)CC3(C)C2CC(C)C32OCOC23COCO3)C2(C)C/C(=C/O)C(=O)C=C12 (centres undefined) 5.28

Dear colleague, I am looking for the recorded growth of the following compound: Nc1ccn(Cc2nnc(CCC(=O)c3nc4ccccc4[nH]3)o2)c(=O)n1 83.5

Dear colleague, I am looking for the recorded growth of the following compound: O=C1/C=C/[C@@H](O)[C@@H]2C[C@@H](O)C[C@H]2/C=C/CCC[C@H](CCc2ccc(NC(=S)Nc3ccc4c(c3)C(=O)OC43c4ccc(O)cc4Oc4cc(O)ccc43)cc2)O1 3.26

Dear colleague, I am looking for the recorded growth of the following compound: COc1ccc(NC(=O)C2CC3C=CC2C3)c([N+](=O)[O-])c1 (centres undefined) 110

Dear colleague, I am looking for the recorded growth of the following compound: Cc1c(Cl)cccc1NC(=O)CCCl 106

Dear colleague, I am looking for the recorded growth of the following compound: Cc1ccc(C(C)C)c(O)c1NC(=O)OC(C)C 103

Dear colleague, I am looking for the recorded growth of the following compound: Cc1ccc(-n2nnnc2N)c(C)c1 96

Dear colleague, I am looking for the recorded growth of the following compound: COc1cc(N)c2ncccc2c1SC 104

Dear colleague, I am looking for the recorded growth of the following compound: C[n+]1c2ccccc2nc2ccccc21 11.2

Dear colleague, I am looking for the recorded growth of the following compound: C=CCn1c(SCC(=O)Nc2ccc(C(=O)/C=C/c3ccc(Cl)cc3)cc2)nnc1-c1cc(-c2ccccc2)nc2ccccc12 5.4

Dear colleague, I am looking for the recorded growth of the following compound: CC1OC2CC(=O)OC2C2=C1C(=O)c1c(O)c3c(c(O)c1C2=O)C1CC(O)C3(O)C(C)O1 (centres undefined) -36.4

Dear colleague, I am looking for the recorded growth of the following compound: C#CC(C)(O)[C@@H]1C[C@H](CC(=O)O)C1(C)C (some centres undefined) 109

Dear colleague, I am looking for the recorded growth of the following compound: CCC(c1ccc(OC)cc1)C(CC)c1ccc(O)c(CN2CCN(C)CC2)c1 (centres undefined) 16.6

Dear colleague, I am looking for the recorded growth of the following compound: CC(C)(C)OC(=O)CN1CCc2c(sc3ncnc(N/N=C/c4ccccc4Br)c23)C1 60.6

Dear colleague, I am looking for the recorded growth of the following compound: COc1ccc2c(c1)CC=C1[C@@H]2CC[C@]2(C)C(=O)/C(=N/O)C[C@@H]12 78.4

Dear colleague, I am looking for the recorded growth of the following compound: O=C1c2c(c(=O)[nH]c3ccccc23)CCN1Cc1ccccc1 105
